Test system: human primary osteoblast-like cells
Assay type: cell-based
concentrations with significant inhibition of viability compared to the control group for assorted sequences
recorded endpoint: concentrations with significant inhibition of viability compared to the control group

1) YRLRVKWKW [AMP1, 9mer cationic antimicrobial peptide … from an optimized peptide library] : ≥ 100 µg/mL
2) KRRWRIWLV [AMP2, 9mer cationic antimicrobial peptide … from an optimized peptide library] : ≥ 267 µg/mL
3) RTKKWIVWI [AMP3, 9mer cationic antimicrobial peptide … from an optimized peptide library] : ≥ 68 µg/mL
4) WRKFWKYLK [AMP5, 9mer cationic antimicrobial peptide … from an optimized peptide library] : ≥ 63 µg/mL
5) RRRIKIRWY [AMP4, 9mer cationic antimicrobial peptide … from an optimized peptide library] : ≥ 251 µg/mL

Cited source for all entries: paper PMC5431435
